Items are presented alongside their recorded IC50.
# assayed.system: human NHE3 (Homo sapiens)
# Construct: expressed in transfected cells; host or cells: OK26 cells (opossum kidney OK cells); OK26 ND sublines with opNHE1 reduced by 90% for A3
# assay.protocol: Measurements of NHE3 inhibitory activities (OK26 cells)
# Format: cell-based
# setup.conditions: OK26 cells (opossum kidney cells overexpressing human NHE3), measurement time 5 minutes at 37° C.; read-out: hNHE3 IC50
parameter: IC50

given.smiles: CC(=O)c1cccc(-c2ccccc2/C=C(\C)C(=O)NC(=N)N)c1
assayed.system: human NHE3 (Homo sapiens)
parameter: IC50
reported: 610 nM

given.smiles: C/C(=C\c1ccccc1-c1cccc(O)c1)C(=O)NC(=N)N
assayed.system: human NHE3 (Homo sapiens)
parameter: IC50
reported: 210 nM

given.smiles: COC(=O)c1ccc(-c2ccccc2/C=C(\C)C(=O)NC(=N)N)cc1
assayed.system: human NHE3 (Homo sapiens)
parameter: IC50
reported: > 10000 nM

given.smiles: C/C(=C\c1ccc(-c2cccc(O)c2)cc1)C(=O)NC(=N)N
assayed.system: human NHE3 (Homo sapiens)
parameter: IC50
reported: 270 nM

given.smiles: C/C(=C\c1cc(O)c(O)cc1-c1cccc(O)c1)C(=O)NC(=N)N
assayed.system: human NHE3 (Homo sapiens)
parameter: IC50
reported: 320 nM

given.smiles: C/C(=C\c1ccccc1-c1cc(C)c(O)c(C)c1)C(=O)NC(=N)N
assayed.system: human NHE3 (Homo sapiens)
parameter: IC50
reported: 230 nM

given.smiles: C/C(=C\c1ccc(-c2ccc(F)c(O)c2)cc1)C(=O)NC(=N)N
assayed.system: human NHE3 (Homo sapiens)
parameter: IC50
reported: 860 nM

given.smiles: C/C(=C\c1ccc(-c2ccc(O)cc2C)cc1)C(=O)NC(=N)N
assayed.system: human NHE3 (Homo sapiens)
parameter: IC50
reported: 230 nM

given.smiles: C/C(=C\c1ccc(C)cc1-c1ccc(O)cc1)C(=O)NC(=N)N
assayed.system: human NHE3 (Homo sapiens)
parameter: IC50
reported: 190 nM

----------
# assayed.system: human NHE3 (Homo sapiens, UniProt P48764)
# Construct: expressed in transfected cells; host or cells: OK26 cells (opossum kidney OK cells); OK26 ND sublines with opNHE1 reduced by 90% for A3
# Sequence (P48764 26-834): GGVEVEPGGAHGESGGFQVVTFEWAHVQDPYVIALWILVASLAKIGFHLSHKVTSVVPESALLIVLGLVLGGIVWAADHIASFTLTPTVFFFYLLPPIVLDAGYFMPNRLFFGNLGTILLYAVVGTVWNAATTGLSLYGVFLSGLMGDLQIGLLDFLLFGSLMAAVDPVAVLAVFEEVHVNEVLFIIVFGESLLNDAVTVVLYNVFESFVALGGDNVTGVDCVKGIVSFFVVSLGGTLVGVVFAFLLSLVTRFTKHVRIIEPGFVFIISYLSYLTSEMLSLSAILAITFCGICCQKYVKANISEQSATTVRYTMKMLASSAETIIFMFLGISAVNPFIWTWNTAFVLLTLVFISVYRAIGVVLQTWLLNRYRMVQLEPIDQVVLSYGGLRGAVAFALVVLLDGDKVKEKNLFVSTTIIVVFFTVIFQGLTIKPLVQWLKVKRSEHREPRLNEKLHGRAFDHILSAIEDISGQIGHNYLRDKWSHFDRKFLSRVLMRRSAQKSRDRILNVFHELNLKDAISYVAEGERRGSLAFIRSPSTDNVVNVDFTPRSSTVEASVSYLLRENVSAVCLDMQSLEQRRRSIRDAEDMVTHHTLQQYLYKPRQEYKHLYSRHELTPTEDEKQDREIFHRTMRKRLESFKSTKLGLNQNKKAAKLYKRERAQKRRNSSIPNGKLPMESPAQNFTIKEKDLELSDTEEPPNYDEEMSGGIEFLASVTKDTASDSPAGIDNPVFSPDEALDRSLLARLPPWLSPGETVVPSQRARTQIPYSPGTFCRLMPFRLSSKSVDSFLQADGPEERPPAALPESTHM
# assay.protocol: Measurements of NHE3 inhibitory activities (OK26 cells)
# Assay type: cell-based
# setup.conditions: OK26 cells (opossum kidney cells overexpressing human NHE3), measurement time 5 minutes at 37° C.; read-out: hNHE3 IC50
parameter: IC50 (nM)

molecule: C/C(=C\c1ccccc1-c1ccc(O)c(O)c1)C(=O)NC(=N)N [Example 26]
parameter: IC50
reported: 230
--
molecule: C/C(=C\c1ccccc1-c1ccc(C(=O)O)cc1)C(=O)NC(=N)N [Example 10]
parameter: IC50
reported: 1600
--
molecule: C/C(=C\c1ccc(-c2ccccc2O)cc1)C(=O)NC(=N)N [Example 88]
parameter: IC50
reported: 480
--
molecule: C/C(=C\c1ccccc1-c1ccc(O)c(F)c1)C(=O)NC(=N)N [Example 24]
parameter: IC50
reported: 470
--
molecule: C/C(=C\c1ccccc1-c1ccc(O)cc1)C(=O)NC(=N)N [Example 2]
parameter: IC50
reported: 110
--
molecule: C/C(=C\c1ccc(C)cc1-c1cccc(O)c1)C(=O)NC(=N)N [Example 37]
parameter: IC50
reported: 180
--
molecule: C/C(=C\c1ccccc1-c1ccc(B(O)O)cc1)C(=O)NC(=N)N [Example 11]
parameter: IC50
reported: 230
